B1: POU domain, class 3, transcription factor 1, residues 247 to 324; numbered along this chain, Q03052 (parent)
chain: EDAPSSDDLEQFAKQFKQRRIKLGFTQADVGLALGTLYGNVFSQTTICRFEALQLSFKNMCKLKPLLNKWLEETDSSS

- Variants of: B1
- TEST NAME: abundance fitness (aPCA) (normalised: wild type 0, dead -1); higher = more abundant; growth selection in yeast, the domain comes from the species named
- CONDITION NOTES: Homo sapiens

MUTANT DESIGNATION	abundance fitness
L71H	-0.402
Q27H	0.217
G39N	-0.213
D75V	-0.115
V30N	-0.281
G31N	-0.437
L34W	-0.914
K62C	-0.224
K64L	-0.511
L63F	-0.148
D29V	-0.679
S56L	-0.88
Q44M	-0.262
V41F	-0.427
L66R	-0.504
W70E	-0.753
F25V	-0.31
